target_desc: cyno FGFR2b on cells (cyno, UniProt A0A2K5TL97 22-821)
Sequence (A0A2K5TL97 entry or part of it): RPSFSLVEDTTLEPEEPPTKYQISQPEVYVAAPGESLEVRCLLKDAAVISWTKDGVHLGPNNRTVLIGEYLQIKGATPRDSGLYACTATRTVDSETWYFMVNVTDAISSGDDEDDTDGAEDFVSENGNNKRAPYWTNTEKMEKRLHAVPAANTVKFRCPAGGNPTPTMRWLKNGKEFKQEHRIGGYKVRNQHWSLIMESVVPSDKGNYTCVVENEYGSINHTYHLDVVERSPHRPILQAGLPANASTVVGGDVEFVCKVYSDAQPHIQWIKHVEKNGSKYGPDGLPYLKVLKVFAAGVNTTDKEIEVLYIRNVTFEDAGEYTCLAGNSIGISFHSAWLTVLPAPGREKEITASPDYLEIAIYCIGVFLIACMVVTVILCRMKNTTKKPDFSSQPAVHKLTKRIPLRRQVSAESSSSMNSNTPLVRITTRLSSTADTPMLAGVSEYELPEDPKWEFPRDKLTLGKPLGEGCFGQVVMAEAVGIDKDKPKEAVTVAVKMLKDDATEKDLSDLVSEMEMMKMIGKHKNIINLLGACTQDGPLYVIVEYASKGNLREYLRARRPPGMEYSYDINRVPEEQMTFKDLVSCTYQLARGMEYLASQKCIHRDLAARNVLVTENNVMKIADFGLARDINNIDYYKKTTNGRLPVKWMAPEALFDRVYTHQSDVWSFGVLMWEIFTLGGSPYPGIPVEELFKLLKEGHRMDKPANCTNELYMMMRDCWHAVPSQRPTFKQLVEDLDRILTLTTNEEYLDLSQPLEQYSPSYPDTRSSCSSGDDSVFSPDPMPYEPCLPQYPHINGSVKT
run_description: flow cytometry, Expi293 cells overexpressing cyno FGFR2b
parameter_measured: Emax (MFI)
Express it in MFI; write the number only.

Ask: For the binder BGAh9239 (antibody, human IgG1, kappa, V domains shown, also called humanized antibody developed from BGAm1823) VH: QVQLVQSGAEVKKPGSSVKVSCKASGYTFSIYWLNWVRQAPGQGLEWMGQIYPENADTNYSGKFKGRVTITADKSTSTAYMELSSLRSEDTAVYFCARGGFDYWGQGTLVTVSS VL: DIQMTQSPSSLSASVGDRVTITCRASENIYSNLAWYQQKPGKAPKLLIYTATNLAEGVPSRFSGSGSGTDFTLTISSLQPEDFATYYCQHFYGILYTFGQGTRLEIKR , what Emax (MFI) is on record?
Reply: 6.88e+06

Ask: Item: BGAh9179 (antibody, human IgG1, kappa, V domains shown, also called BGA9179; humanized antibody developed from BGAm1371) VH: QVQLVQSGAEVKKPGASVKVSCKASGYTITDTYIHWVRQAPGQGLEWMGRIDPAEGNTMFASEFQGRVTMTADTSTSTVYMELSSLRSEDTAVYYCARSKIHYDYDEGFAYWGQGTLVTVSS VL: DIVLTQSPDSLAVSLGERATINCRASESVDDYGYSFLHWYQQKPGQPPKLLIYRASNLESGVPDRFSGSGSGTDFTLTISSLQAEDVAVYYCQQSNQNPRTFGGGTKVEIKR
Reply: 6.25e+06

Ask: How about BGAm1823 (antibody, V domains shown, assays detect or capture it with anti-human IgG; also called murine parental antibody of BGAh9239) VH: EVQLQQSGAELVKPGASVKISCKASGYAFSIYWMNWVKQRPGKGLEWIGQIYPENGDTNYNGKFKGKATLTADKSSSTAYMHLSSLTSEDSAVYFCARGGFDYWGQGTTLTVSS VL: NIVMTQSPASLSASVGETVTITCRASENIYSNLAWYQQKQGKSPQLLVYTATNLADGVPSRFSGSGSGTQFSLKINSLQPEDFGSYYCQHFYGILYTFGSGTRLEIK ?
Reply: 7.36e+06

Ask: Another binder to look at: BGAm1371 (antibody, V domains shown, assays detect or capture it with anti-human IgG; also called parental mouse clone; murine parental antibody of BGAh9179) VH: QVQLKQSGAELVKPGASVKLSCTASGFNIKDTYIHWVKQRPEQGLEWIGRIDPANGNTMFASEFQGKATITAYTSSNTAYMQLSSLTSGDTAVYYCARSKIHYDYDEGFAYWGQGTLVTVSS VL: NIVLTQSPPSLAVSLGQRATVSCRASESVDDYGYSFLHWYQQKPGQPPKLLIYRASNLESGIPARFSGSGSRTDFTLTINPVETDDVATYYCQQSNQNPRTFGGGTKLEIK
Reply: 6.19e+06
